Each recorded value in this set is attributed to PubChem BioAssay AID743286.

- target: Phosphatidylinositol 5-phosphate 4-kinase type-2 alpha (Homo sapiens) (UniProt P48426)
- Sequence (P48426 whole entry, looked up): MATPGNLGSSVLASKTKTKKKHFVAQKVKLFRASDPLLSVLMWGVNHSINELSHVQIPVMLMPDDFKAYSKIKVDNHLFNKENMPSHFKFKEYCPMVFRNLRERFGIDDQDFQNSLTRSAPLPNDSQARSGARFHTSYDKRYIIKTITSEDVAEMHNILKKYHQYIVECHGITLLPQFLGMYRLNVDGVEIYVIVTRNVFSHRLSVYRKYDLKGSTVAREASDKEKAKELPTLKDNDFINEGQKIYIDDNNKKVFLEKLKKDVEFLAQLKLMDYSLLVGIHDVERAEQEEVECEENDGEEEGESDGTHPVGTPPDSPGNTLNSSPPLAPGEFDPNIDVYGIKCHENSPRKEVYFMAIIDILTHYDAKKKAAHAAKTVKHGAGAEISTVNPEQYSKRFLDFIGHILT
- method summary: qHTS for Inhibitors of PI5P4K: Confirmation in Primary Assay; also: nearly all actives have a fitted effect of over 65% in size
- condition set: PI5P4Kalpha enzyme, ADP-Glo luminescence, 60 min; series mostly up to 76.9 µM
- Excerpt: In addition to finding PI5P, we discovered the type II phosphatidylinositol 5-phosphate 4-kinase (PI5P4K) family (alpha, beta, gamma isoforms) that catalyze the conversion of PI5P to PI(4,5)P2. Alternatively, PI(4,5)P2 can also be synthesized through phosphatidylinositol-4-phosphate (PI4P) by the type I phosphatidylinositol 4-phosphate 5-kinases (PI4P5K). […]
Screen size: about 1,100 compounds; about 340 (31%) were called active. Another 40% or so got no clear call; they are omitted. Calls follow the shape of the dose curve; as a rule, active = well fitted inhibition curve with a large enough effect; inconclusive = small, poorly fitted or top-dose-only effect; inactive = flat fitted curve, though single readings scatter. Not all results are given here.
Possible outcomes: y (active), n (inactive)

COc1ccc(S(=O)(=O)/N=C2\C=C(NS(=O)(=O)c3ccccc3)C(=O)c3ccccc32)cc1; y
COCCNC(=O)c1cc(-c2ccccc2)sc1N; n
COc1cccc(NC(=O)CN(C)C(=O)c2cc(-c3ccco3)nc3ccccc23)c1; y
COc1ccc(OC)c(C2CC(=O)N3CN(c4cccc(Cl)c4)CSC3=C2C#N)c1 (configuration not stated); n
O=C(Nc1cccc(S(=O)(=O)NC2=NCCC2)c1)c1cc(-c2ccco2)nc2ccccc12; y
COc1ccc(Br)cc1C(=O)Nc1cccc(NC(=O)c2ccco2)c1; n
CN(C(=O)c1ccc(Br)o1)C1CCS(=O)(=O)C1 (configuration not stated); n
COc1ccc(N2CSC3=C(C#N)C(c4cccc(OC)c4OC)CC(=O)N3C2)cc1 (configuration not stated); y
COc1ccc(C(=O)N2CCCC2(C)C(=O)O)cc1C(F)(F)F (configuration not stated); n
CCOC(=O)C1CCCN(C(=O)c2cc(-c3ccco3)nc3ccccc23)C1 (configuration not stated); y
Cc1ccc(-c2csc3ncnc(NCCC(=O)O)c23)cc1C; y
COc1ccc(S(=O)(=O)Nc2ccc3c(c2)CCC3)cc1; n
CCOC(=O)C1CCCN(C(=O)c2ccc(F)c(C)c2)CC1 (configuration not stated); n
O=C(c1cc(-c2ccco2)nc2ccccc12)N(Cc1nnc(-c2ccc(Cl)cc2)o1)C1CC1; n
Cc1c(Cl)cccc1NC(=O)Cn1nnc(C(=O)NCc2cccs2)c1N; n
COc1ccc(CC(=O)NCC(=O)NC(Cc2ccccc2)C(=O)O)cc1 (configuration not stated); n
Cc1ccc(NC(=O)CN(C)C(=O)c2cc(-c3ccco3)nc3ccccc23)cc1; y
COc1ccc(NC(=O)CN(C)C(=O)c2cc(-c3ccco3)nc3ccccc23)cc1; y
COc1cc(NC2=Nc3cccc4cccc2c34)cc(OC)c1OC; n
COc1cc2nc(Nc3ccc(C)c(Cl)c3)nc(N)c2cc1OC; y
CCOC(=O)C1(C)CCCN(C(=O)c2ccccc2C(F)(F)F)C1 (configuration not stated); n
CCOC(=O)N1CCN(C(=O)CCS(=O)(=O)c2ccc3c(c2)CCN3C(=O)CC)CC1; n

----------
- target: Phosphatidylinositol 5-phosphate 4-kinase type-2 alpha (Homo sapiens) (UniProt P48426)
- method summary: qHTS for Inhibitors of PI5P4K: Confirmation in Primary Assay; also: nearly all actives have a fitted effect of over 65% in size
- condition set: PI5P4Kalpha enzyme, ADP-Glo luminescence, 60 min; series mostly up to 76.9 µM
- Source text: In addition to finding PI5P, we discovered the type II phosphatidylinositol 5-phosphate 4-kinase (PI5P4K) family (alpha, beta, gamma isoforms) that catalyze the conversion of PI5P to PI(4,5)P2. Alternatively, PI(4,5)P2 can also be synthesized through phosphatidylinositol-4-phosphate (PI4P) by the type I phosphatidylinositol 4-phosphate 5-kinases (PI4P5K). […]
Out of some 1,100 compounds screened, about 340 (31%) were called active. Not shown: some 40% with an inconclusive outcome. Calls come from the whole dose curve; as a rule, active = well fitted inhibition curve with a large enough effect; inconclusive = small, poorly fitted or top-dose-only effect; inactive = flat fitted curve, though single readings scatter. These entries were drawn from the full list.
Possible outcomes: active, inactive

CCN1CCN(Cc2ccc(NC(=O)c3cc(NC(=O)c4cc5cccc(OC)c5o4)cc(OC)c3)cc2C(F)(F)F)CC1; active
CCn1nc(CC(=O)Nc2nnc(CC(=O)N3CCOCC3)s2)c2ccccc2c1=O; inactive
CNC(=O)c1nc(C)n(-c2ccc(Cl)cc2Cl)n1; inactive
COc1ccc2c([N+](=O)[O-])c(Cl)[nH]c2c1; active
CCc1nnc(NC(=O)c2ccc(S(C)(=O)=O)cc2)s1; inactive
O=C(Oc1ccc(N(Cc2cccs2)C2=NS(=O)(=O)c3ccccc32)cc1)c1ccccc1Cl; inactive
CCN1CCN(C(=O)Cn2nc(-c3ccc(Cl)cc3)ccc2=O)CC1; inactive
CCC(=O)Oc1ccc(C(=O)Nc2c[nH]c(=O)[nH]c2=O)cc1; inactive
Cc1cc(NC(=O)CSc2sc3c(O)cc(=O)[nH]c3c2C#N)ccc1Br; active
CCCn1c(=O)c2[nH]c(-c3ccc(S(=O)(=O)O)cc3)nc2n(CCC)c1=O; active
Cc1cnc(NC(=O)CSc2c(Cl)cccc2Cl)s1; inactive
CCc1nnc(NC(=O)CSc2sc3c(O)cc(=O)[nH]c3c2C#N)s1; active
CCOc1ccc(Cl)cc1S(=O)(=O)n1cnc2ccccc21; inactive
O=C(NC1CC1)c1ccc(NC(=O)C2CCC2)cc1; inactive
Cc1ccnc2nc(C(=O)OCC(=O)NC3CCCC(C)C3C)nn12 (configuration not stated); inactive
O=C(Cc1ccc(S(=O)(=O)N2CCOCC2)s1)Nc1nc2c(s1)CCCC2; active
Cc1cc(C(=O)Nc2cccc3c2O[C@@H](CN(C)S(C)(=O)=O)[C@H](C)CN([C@@H](C)CO)C3=O)n(C)n1; inactive
Cn1c(=O)c2[nH]c(-c3ccc(S(=O)(=O)O)cc3)nc2n(C)c1=O; active
CC(=O)c1ccc(NC(=O)c2noc3c2CCC3)cc1; active
N#Cc1c(SCC(=O)Nc2nncs2)sc2c(O)cc(=O)[nH]c12; active
Cc1ccc(C(c2nnnn2CS(=O)(=O)c2ccc(C)cc2)N2CCC(C)CC2)cc1 (configuration not stated); inactive
COCCOC(=O)c1[nH]c2c(c1C)C(=O)CC(c1ccco1)C2 (configuration not stated); active

----------
- target: Phosphatidylinositol 5-phosphate 4-kinase type-2 alpha (Homo sapiens) (UniProt P48426)
- method summary: qHTS for Inhibitors of PI5P4K: Confirmation in Primary Assay; also: nearly all actives have a fitted effect of over 65% in size
- condition set: PI5P4Kalpha enzyme, ADP-Glo luminescence, 60 min; series mostly up to 76.9 µM
The whole screen tested about 1,100 compounds, of which about 340 (31%) were called active. About 40% were inconclusive and are not listed. The call rests on the fitted dose curve; in most records, active means well fitted inhibition curve with a large enough effect; inconclusive means small, poorly fitted or top-dose-only effect; inactive means flat fitted curve, though single readings scatter. These entries were drawn from the full list.
Possible outcomes: T for active, F for inactive

COC(=O)c1ccccc1NC(=O)CN1CCC(n2nnc3cc(C(F)(F)F)ccc32)CC1; F
COc1ccc(Cl)cc1S(=O)(=O)NCCCn1ccnc1; F
CCOc1ccc(S(=O)(=O)N(C(=O)c2ccco2)c2cc3sc(=O)oc3c3ccccc23)cc1; F
O=C(NCC1CCCCC1)c1cccc([N+](=O)[O-])c1; F
O=S(=O)(c1ccc(Br)cc1)N1CCCc2ccccc21; F
COc1ccc(S(=O)(=O)N(C(=O)c2ccco2)c2cc3sc(=O)oc3c3ccccc23)cc1; F
CC1(C)Cc2cccc(OCC(=O)NCCOc3ccccc3)c2O1; F
Cc1sc2ncnc(NC(C)C(=O)O)c2c1C (stereo unspecified); T
COc1ccccc1N(CC(=O)NCc1ccco1)S(=O)(=O)c1ccc(C)cc1; T
COC(=O)Cc1c(C)nc2nc(-c3ccc(C)cc3)[nH]n2c1=O; T
COc1cccc(CNS(=O)(=O)c2ccccc2Br)c1OC; F

----------
- target: Phosphatidylinositol 5-phosphate 4-kinase type-2 alpha (Homo sapiens)
- method summary: qHTS for Inhibitors of PI5P4K: Confirmation in Primary Assay; also: nearly all actives have a fitted effect of over 65% in size
- condition set: PI5P4Kalpha enzyme, ADP-Glo luminescence, 60 min; series mostly up to 76.9 µM
- Description: In addition to finding PI5P, we discovered the type II phosphatidylinositol 5-phosphate 4-kinase (PI5P4K) family (alpha, beta, gamma isoforms) that catalyze the conversion of PI5P to PI(4,5)P2. Alternatively, PI(4,5)P2 can also be synthesized through phosphatidylinositol-4-phosphate (PI4P) by the type I phosphatidylinositol 4-phosphate 5-kinases (PI4P5K). […]
Screen size: about 1,100 compounds; about 340 (31%) were called active. Not shown: some 40% with an inconclusive outcome. Calls come from the whole dose curve; as a rule, active = well fitted inhibition curve with a large enough effect; inconclusive = small, poorly fitted or top-dose-only effect; inactive = flat fitted curve, though single readings scatter. These entries were drawn from the full list.
Possible outcomes: active, inactive

CCc1ccccc1N1CSC2=C(C#N)C(c3ccccc3F)CC(=O)N2C1 (stereo not drawn); active
O=C(O)C1CSC(c2coc3ccccc3c2=O)N1 (stereo not drawn); inactive
Cc1ccc([N+](=O)[O-])cc1Nc1nc(N2CCOCC2)nc(N2CCOCC2)n1; inactive
CCCCCCNC(=O)c1cc(-c2ccco2)nc2ccccc12; active
O=C(NCc1ccccc1)C(c1ccccc1)n1c(=O)c(-c2ccco2)nc2ccccc21 (stereo not drawn); inactive
CC1CCCC(C)N1C(=O)COC(=O)CNC(=O)c1ccccc1 (stereo not drawn); inactive
O=C(NC1CCC(O)CC1)c1cc(-c2ccco2)nc2ccccc12 (stereo not drawn); active
N#CC1=C2SCN(c3ccccc3)CN2C(=O)CC1c1c(Cl)cccc1Cl (stereo not drawn); active
CC(=O)Nc1ccc2nc(SCC(=O)NCCOc3ccccc3)sc2c1; inactive
Cc1ccc(-c2cc(C(=O)O)c3cc(Br)ccc3n2)o1; active
O=C(NCc1ccco1)c1c2c(nc3ccccc13)CCC2; active
O=C(Cn1cnc2c(OCc3ccccc3)ncnc21)NCc1nc2ccccc2[nH]1; inactive
CCOc1ccc(OCc2ccc(C(=O)N3CCOCC3)cc2)cc1; inactive
O=C(NCc1ccco1)c1ccc([N+](=O)[O-])o1; active
Cn1nnc2cc(C(=O)NC3CC3)ccc21; inactive
Cc1cc(C)c(NC(=O)OCCN2CCOCC2)c(C)c1; inactive
CCCn1c(SCC(=O)N2c3ccccc3Sc3ccccc32)nc2c1c(=O)n(C)c(=O)n2C; inactive
C#CCN1C(=O)S/C(=C\c2ccc(-c3ccc(C(=O)O)cc3C)o2)C1=O; active
O=C(c1cccnc1)N(c1cc2sc(=O)oc2c2ccccc12)S(=O)(=O)c1ccccc1; inactive
Cc1c(C(=O)O)sc2ncnc(N3CCCCC3C)c12 (stereo not drawn); active
O=C(NCCCN1CCOCC1)c1sc2cc([N+](=O)[O-])ccc2c1Cl; active
Nc1nc(N)c2cc(S(=O)(=O)c3cccc(C(F)(F)F)c3)ccc2n1; inactive
N#Cc1c(SCC(=O)Nc2nc3ccc(Br)cc3s2)sc2c(O)cc(=O)[nH]c12; active
